Could you please report measured melting point for the items listed next?
Answers are plain numbers, in °C.

molecule	melting point (°C)
CC(=O)CC1NC(=O)c2sccc2-n2cccc21 (centres undefined)	268

Task item: Given Cc1nn(C)c(=O)n1-c1ccc([N+](=O)[O-])cc1 , state its recorded melting point.
Reply: 153

---

So I've got a bunch of compounds here, and I need their melting point values.

# count of solved cases: 10
compound	melting point
CCCCCCCP(=O)(O)O[C@@H](CCCCN)C(=O)N1CCC[C@H]1C(=O)O	180 to 186 °C
COC(=O)/C=C1\CCCCC1n1nc(-c2c(-c3ccccc3)nn3ccccc23)ccc1=O (centres undefined)	156 to 157 °C
O=C(c1cnc2ccccc2c1)N1CCC(c2ccccc2)=N1	107 to 112 °C
CC(C)C[C@H](NC(=O)[C@@H]1CCCN1C(=O)[C@@H](N)CSCc1ccccc1)C(=O)NCC(N)=O	130 to 134 °C
O=c1[nH]c2ccccc2n1CCN1CCN(c2cc(C(F)(F)F)ccc2O)CC1	158 to 160 °C
CCCC(=O)Nc1c(C)cccc1C	134 to 136 °C
CC(C)C(=O)O[C@@H](OC(=O)ON1C(=O)[C@H](OC(=O)c2ccccc2)[C@@H](OC(=O)c2ccccc2)C1=O)C(C)C	138 to 140 °C
CN1C(=O)C2(COc3cc4c(cc32)OCCO4)c2c(-c3cn[nH]c3)cccc21 (centres undefined)	250 to 251 °C
CN(C)Cc1cc(-c2ccccc2)c(O)c(-c2ccccc2)c1	136 to 137 °C
CCN(CC)c1ccc(CN2CCC(NC(=O)Nc3ccccc3CCc3cc(C(C)(C)C)c(O)c(C(C)(C)C)c3)CC2)cc1	138 to 141 °C

I'm hoping you can list melting point for every compound here, please.
1. CCOc1cc2c(Nc3cc(OC)c(Cl)cc3Cl)c(C#N)cnc2cc1OCC1CCN(C)CC1
2. COc1ccc(S(=O)(=O)N2c3ccc(Br)cc3-c3ccccc3C2c2ccccc2)cc1 (centres undefined)
3. C#CCON=C(C)C1CN2CCC1CC2 (centres undefined)

Reply:
["182 to 186 °C", "209 to 211 °C", "56 to 58 °C"]

I would be grateful if you could provide melting point for each of the following entries.
1. Cc1nn(C)c2ccc(C(=O)O)c(C(=O)O)c12
2. CC(C)n1c(=O)sc2cc(N3C[C@H](C(N)=O)OC3=O)ccc21
3. CCCCCCCCCCCCCCCCOc1coc(CO)cc1=O
4. COc1ccc(-c2cc(C(F)F)nn2-c2ccc(S(N)(=O)=O)cc2)cc1F
5. O=C(Nc1cccnc1NCc1ccc(Cl)cc1)c1ccccn1

Reply:
["228 to 232 °C", "183 to 184 °C", "68 to 69.5 °C", "159 to 161 °C", "123 to 125 °C"]

Your task in this section: give melting point for each listed record.
1. O=c1[nH]c2cc(Cl)ccc2n1CCCBr
2. Cc1c(-c2ccncc2)sc(-c2ccncc2)c1C(C)O (centres undefined)
3. CCN(CC)CCNC(=O)c1c(I)ccc2c1Nc1ccccc1C2
4. O=C(CCOc1cccc(-c2ccccc2)c1)NO
5. CCOC(=O)c1cc2cc(Cl)ccc2n1C

Reply:
1: 162 °C; 2: 155 to 157 °C; 3: 106 to 108 °C; 4: 113 to 116 °C; 5: 81.5 to 82 °C

// for each compound below, give its melting point
1. C=C(Nc1nc(-c2ccccc2)c(-c2nc3ccccc3c(=O)n2-c2ccc(C(C)=O)cc2)s1)c1ccco1
2. CC(=NOCCOc1ccc(CC2SC(=O)NC2=O)cc1)c1ccc2ccccc2c1 (centres undefined)
3. CCn1c(C(c2cccc(F)c2)c2cccc(F)c2)nc(-c2ccncc2)c1-c1ccc(Cl)cc1
4. COC(=O)c1sccc1NC(=O)OC(C)C
5. CCOc1ccc2c(c1)C(C)=CC(C)(C)N2C(=O)OC
6. COC1c2c(c(C)nn2-c2ccccn2)C(=O)CC1(C)C (centres undefined)

Reply:
1: 232 to 233 °C; 2: 138 to 139 °C; 3: 184 to 186 °C; 4: 105 to 107 °C; 5: 54.5 to 56.5 °C; 6: 86 to 89 °C

---

Please go through the items and note down their melting point.

Please state, for each entry, its recorded melting point.
1. CN1CC(C(=O)COC(=O)c2ccncc2)CC2c3cccc4[nH]cc(c34)CC21 (stereo not drawn)
2. Cc1nc(-c2cnc3[nH]cc(C(=O)N[C@@H](C(=O)N4CC(C#N)C4)C4CC4)c3n2)cn1CC(F)(F)F
3. C=CCc1cc(C(=O)OC)ccc1-c1ccc(OC)c(OC)c1

Reply:
1: 158 to 161 °C; 2: 255 to 256 °C; 3: 99 to 103 °C

---

Hi there, I'd appreciate the recorded melting point for every entry that follows.

In the examples that follow, each entry is paired with its recorded melting point.
molecule	melting point
CC(=O)NC(CCCCCCCCC(NC(C)=O)C1CCCCCCC1)C1CCCCCCC1 (centres undefined)	144 to 149 °C
OC(CN=CCc1cnc(-c2ccccc2)nc1-c1ccccc1)c1ccccc1 (centres undefined)	140 to 144 °C
Cn1cc(C2=C(c3csc4ccccc34)C(=O)NC2=O)c2ccccc21	238 to 241 °C

Read the next record carefully.
Task item: I would be grateful if you could share the reported melting point for O=C(O)C(=O)CC(=O)c1ccc(OCc2ccccc2)cc1OCc1ccccc1 .
Reply: 160 to 164 °C

---

Assign melting point to each entry below.

smiles-structure	melting point
CCC(O)(CC)CC/C=C(\C)c1ccc(COc2ccc(CO)c(CO)c2)s1	100 to 102 °C
CS(=O)(=O)c1ccc(C2=C(c3ccccc3)C(=O)N(C3CC3)C2)cc1	144 to 146 °C

Consider now this further molecule.
Task item: Quick one: melting point for Nc1cc2[nH]c(=O)c(C(=O)O)nc2cc1F ?
Reply: > 300 °C

---

measured-endpoint: melting point

Check out these entries, answers already filled in.
compound	melting point
Cc1nc(N)nc(N)c1N=Nc1cccc(Cl)c1	249 °C
CCCCCC1CCC(CCc2ccc(-c3ncc(O)cn3)c(F)c2F)CC1 (stereo unspecified)	157 °C
Clc1ccc(Nc2nc(-c3cccc(Cl)n3)nc3ccccc23)cc1	212 to 213 °C
COc1ccc(Cn2c(=O)oc(=O)c3ccccc32)cc1	143 °C
O=C(O)Cc1ccccc1Oc1ccc(C(F)(F)F)cc1[N+](=O)[O-]	165 to 167 °C

Report melting point for each item below.
1. N#Cc1ccc(N2C(=O)NC3(CCCC3)C2=O)cc1C(F)(F)F
2. CC1(C)CC(=C(c2ccc(O)cc2)c2ccc(-c3ccccc3C(=O)O)cc2)CC(C)(C)C1
3. CCCCCCCCCCCCSCCO
4. C=Cc1ccc(C(C#N)C#N)cc1
5. O=C(N[C@H](Cc1ccc(C(F)(F)F)cc1)[C@@H](O)c1ccc(F)cc1)c1ccc(F)c2ccccc12 (racemic)
6. COc1ccc(N(C(C)=O)S(=O)(=O)c2ccc(C)cc2)c([N+](=O)[O-])c1
7. CN(C)c1cccc(OCC(=O)NCCO[N+](=O)[O-])c1
8. CCOc1nn(C(=O)NS(=O)(=O)c2ccccc2N2CCCC2)c(=O)n1C

Reply:
1: 184 to 185 °C; 2: 230 to 231 °C; 3: 31 to 32 °C; 4: 40 to 42 °C; 5: 210 to 211 °C; 6: 172 to 174 °C; 7: 62 to 63 °C; 8: 68 °C

---

Could you please report measured melting point for the items listed next?

Worked cases, answers included:
compound	melting point
CSc1nnc(C(N)(c2ccc(Cl)cc2)c2ccc3c(c2)c(-c2cccc(Cl)c2)nc2nnnn23)n1C (centres undefined)	150 °C
COc1c(C)cc(-c2[nH]c3ccc(NS(=O)(=O)c4ccc(C)cc4)cc3c2C)cc1C	192 to 194 °C
CCc1[nH]c(=S)n(Nc2cccc(Cl)c2)c1-c1ccccc1	116 to 118 °C
CCn1c(=O)c2[nH]c(/C=C/c3cc(C)c(OC)cc3C)nc2n(CC)c1=O	> 280 °C
Clc1ccccc1-c1n[nH]cc1Br	80 °C
N#Cc1nn(-c2c(Cl)cc(C(F)(F)F)cc2Cl)cc1I	83 to 84 °C
Cc1nc(C)c(-c2cccc(OC3SCC(O)C(O)C3O)c2)s1 (centres undefined)	158 to 164 °C
CCNC(=O)c1sc(SC)cc1[Si](C)(C)C	58 to 61 °C

Next:
Task item: Field request: melting point | item: CCCOc1ccccc1-c1nc(N)cc(=O)[nH]1
Reply: 184 °C

---

Kindly supply the reported melting point values for the records listed here.

Previously resolved entries follow.
molecule	measured-endpoint	data-value
Cc1ccc(C2=NNC(=O)CC2)cc1OCC1CO1 (stereo unspecified)	melting point	128 to 132 °C
CNS(=O)(=O)c1cn(C)c2c(OC)c(OC)c(OC)cc2c1=O	melting point	184 to 186 °C
Cn1ncc(CO)c1-c1ccc(Cl)cc1C(O)c1ccccc1F (stereo unspecified)	melting point	152 to 155 °C
N#Cc1cnn(-c2cc(Cl)c(Cl)c(Cl)c2Cl)c1N	melting point	168 to 169 °C

# map each molecule to its melting point
1. O=C(c1ccc(Cl)cc1)N1CCc2cc(S(=O)(=O)N3CCN(c4cccc(Cl)c4)CC3)ccc21
2. O=S(=O)(Nc1ccc2c(OCc3ccc(Br)cc3F)cccc2c1)C(F)(F)F
3. OCC1OC(n2c(Cl)nc3cc(Br)ccc32)C(O)C1O (stereo unspecified)
4. CC(C)(C)n1ncc(NCCN2CCNC(c3cccc(C(F)(F)F)c3)C2)c(Cl)c1=O (stereo unspecified)
5. COc1c(F)c(N)cc(F)c1F
6. Cc1ccc(N)c(OCCOc2cc(C(=O)OC(C)(C)C)ccc2N)c1
7. CC1(C)CCC(C)(C)c2cc(-c3cc(-c4ccc(CN)cc4)on3)ccc21
8. COc1c(N2CCC(NC3CC3)C(C)C2)c(F)cc2c(=O)c(C(=O)O)cn(C3CC3)c12 (stereo unspecified)

Reply:
191 to 192 °C
123 to 125 °C
154 to 155 °C
124 to 127 °C
45 to 47 °C
154 to 156 °C
138 to 143 °C
182 to 184 °C

Look up melting point for the entries below, preserving their order.
1. Cc1ncn(-c2ccc([N+](=O)[O-])cc2F)n1
2. NC(c1ccnc(F)c1)C(O)c1cccc(C(F)(F)F)c1 (stereo unspecified)
3. N#Cc1cnc2cc(-c3ccc(CN4CCOCC4)o3)ccc2c1Nc1ccc(Cl)cc1Cl
4. O=C(NCCCl)Nc1ccc2cn[nH]c2c1
5. CC(=O)NCC1CN(c2ccc(N3CCC(O)C(C)(C)C3)c(F)c2)C(=O)O1 (stereo unspecified)
6. CCCCCS(=O)(=O)NC(=O)CCc1cc(C(C)C)nn1Cc1ccc(C(F)(F)F)cc1Cl
7. Cc1ncc(CSC(=O)c2ccccc2)c(C=O)c1O

Reply:
["105 to 107 °C", "128 to 129 °C", "118 to 120 °C", "253 to 258 °C", "70 to 72 °C", "144 to 145 °C", "127 to 130 °C"]

Give me melting point for each of these molecules, listed below.
1. COC(=O)COc1cccc2c(CNS(=O)(=O)CCCCCc3ccccc3)coc12
2. O=C(O)CCCCN1C(=O)c2cccc([N+](=O)[O-])c2C1=O
3. CCOC(=O)/C=C(/c1ccc(OC)cc1)c1cc(F)cc(F)c1
4. CCOC(=O)CNC(=O)n1nc(Oc2c(Cl)cc(C(F)(F)F)cc2Cl)cc1C
5. CC1(C)CCCC(C)(C)N1Cc1ccc2cc(NC(=O)c3ccc(-c4ccccc4)cc3)ccc2n1
6. O=C(NC1N=C(c2ccccc2)c2ccccc2NC1=O)c1ccc(-c2ccccc2)cc1 (racemic)

Reply:
1: 84.5 to 85.5 °C; 2: 158 to 160 °C; 3: 65 to 66 °C; 4: 50 to 53 °C; 5: 200 to 201 °C; 6: 274 to 276 °C

Go through the items and report each one's melting point.
1. CCOC(=O)O[C@H](c1ccc(S(C)(=O)=O)cc1)[C@@H](CF)NC(=O)C(Cl)Cl
2. Cc1cc(OCC(=S)Nc2cccc(C(=O)O)c2)ccc1C(C)C
3. CCOc1cc(C(CC#N)N2C(=O)c3cccc([N+](=O)[O-])c3C2=O)ccc1OC (stereo unspecified)
4. CC(=O)COc1ccc(N2N=C3c4ccccc4SCC3CC2=O)cc1 (stereo unspecified)
5. COCOCC#Cc1nc(-c2ccc(=O)n(C(C)C)n2)c(-c2ccccc2)nc1N

Reply:
110 to 112 °C
174 to 176 °C
156 to 157 °C
177 to 180 °C
133 to 135 °C

Task item: Look up melting point: CC(C)(C)OC(=O)c1ccc2[nH]ccc2c1
Reply: 91 to 93 °C

Cited source: a melting point compilation (Tetko et al.; mined from patent text by program, amines drawn as free bases though some values may be those of a salt)
